experiment: Oxygen solubility measured by gas chromatograph having a thermal conductivity detector; format: physicochemical; details: 25° C., 760 mm O2 pressure
Assay Metric: Measured O2 Solubility

compound=FC(F)(F)C(=C(C(F)(C(F)(F)F)C(F)(F)F)C(F)(C(F)(F)F)C(F)(F)F)C(F)(F)F assay_metric="Measured O2 Solubility" observed_measurement="39.5 cc O2 /100 cc FC"
compound="FC(F)(F)C(F)(F)C(F)(F)C(F)(F)N(C(F)(F)C(F)(F)C(F)(F)C(F)(F)F)C(F)(F)C(F)(F)C(F)(F)C(F)(F)F [(n-C4 F9)3 N(FC-43), reference compound]" assay_metric="Measured O2 Solubility" observed_measurement="36.8 cc O2 /100 cc FC"
compound=CCOC(=O)CC(C(F)(F)F)(C(F)(F)F)C(F)(F)F assay_metric="Measured O2 Solubility" observed_measurement="34.4 cc O2 /100 cc FC"
compound=C=CCC(C(F)(F)F)(C(F)(F)F)C(F)(F)F assay_metric="Measured O2 Solubility" observed_measurement="48 cc O2 /100 cc FC"
compound=CCCCC(C(F)(F)F)(C(F)(F)F)C(F)(F)F assay_metric="Measured O2 Solubility" observed_measurement="41.2 cc O2 /100 cc FC"

These entries and their values trace back to patent US4173654A.
